Origin of values: paper PMC7819943

# measured.target: OsSMF1 (Oryza sativa, UniProt Q6ZLB0 1-436)
# Sequence: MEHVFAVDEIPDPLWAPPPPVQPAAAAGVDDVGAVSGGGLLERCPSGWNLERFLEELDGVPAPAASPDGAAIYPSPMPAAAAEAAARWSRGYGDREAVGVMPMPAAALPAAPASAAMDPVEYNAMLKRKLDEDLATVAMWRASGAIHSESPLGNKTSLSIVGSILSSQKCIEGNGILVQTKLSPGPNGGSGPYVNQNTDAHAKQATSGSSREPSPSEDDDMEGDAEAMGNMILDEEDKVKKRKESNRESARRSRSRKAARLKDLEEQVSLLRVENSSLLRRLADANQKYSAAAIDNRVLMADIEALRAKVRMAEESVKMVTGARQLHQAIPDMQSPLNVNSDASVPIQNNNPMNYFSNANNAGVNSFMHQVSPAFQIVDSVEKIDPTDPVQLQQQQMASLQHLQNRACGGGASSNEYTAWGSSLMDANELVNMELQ
# protocol: protein-binding microarray (RPBM); PBS, 2% BSA, 51.3 ng/ul salmon testes DNA, 50 uM zinc acetate, 200 nM TF, 25 C, 1 h; high values mean tight binding
# measurement.setup: protein: recombinant; tags: N-terminal polyhistidine and DsRed monomer fusion (pET32a); chain copies: 2; label: CyDye5-dUTP incorporated in the synthesized complementary strand; 3' TTTTT single-stranded linker to array surface; dsDNA, one strand shown
Whole data set: some 39,000 sequences, median “fluorescence intensity (a.u.)” near 4,300, cut for the highest 2% near 39,000. The entries come from a sample that favours the highest values as a whole.
test.readout: binding signal

query: Using the record for CTTGTTTGATCAAACCGATGCGACGCAGAGAGAGAGAGGTCGGAGTCACCTAGTGCAG , report its binding signal.
result: 39400 fluorescence intensity (a.u.)

query: Using the record for GATCTGTCACTGTATGGAATGATGCAAAGCTGCTGCTGATCGGAGTCACCTAGTGCAG , report its binding signal.
result: 32000 fluorescence intensity (a.u.)

query: Using the record for GGTCGATGATGATGATGACGACGACGAGAGGAGGAGAGATCGGAGTCACCTAGTGCAG , report its binding signal.
result: 3820 fluorescence intensity (a.u.)

query: Using the record for ATCAGCAACAATCAGGCTCCTGTGCGGTAAGTCCAACATTCGGAGTCACCTAGTGCAG , report its binding signal.
result: 6700 fluorescence intensity (a.u.)

query: Using the record for CTCCTCCCATGCGCCGCCACGTAGGATCGCGCGATCAGATCGGAGTCACCTAGTGCAG , report its binding signal.
result: 10300 fluorescence intensity (a.u.)

query: Using the record for GTTGTTGTTCTTGGATGTGAATGTGAATAATGTGATGTTTCGGAGTCACCTAGTGCAG , report its binding signal.
result: 3350 fluorescence intensity (a.u.)

query: Using the record for CTCGAGAGTTATTTATTATTTATATTTCCAAAGGTTTGACCGGAGTCACCTAGTGCAG , report its binding signal.
result: 25900 fluorescence intensity (a.u.)
